Quick list: CC50 at 6 days per entry.
assay: Cell viability assay (AlamarBlue) in HepAD38 cells; settings: human

- compound: "CN(C(=O)c1[nH]nc2c1CN(C(=O)c1cc3cc(F)ccc3[nH]1)CC2)C1CC1 [Example 321]"
  CC50 at 6 days: "> 10 µM"
- compound: "CCOCC1(N(C)C(=O)c2n[nH]c3c2CN(C(=O)c2cc4ccccc4[nH]2)CC3)CC1 [Example 207]"
  CC50 at 6 days: "> 10 µM"
- compound: "CN(CCO)C(=O)c1n[nH]c2c1CN(C(=O)c1cc3c(Cl)c(F)ccc3[nH]1)CC2 [Example 51]"
  CC50 at 6 days: "> 100 µM"
- compound: "COCC1(N(C)C(=O)c2n[nH]c3c2CN(C(=O)c2cc4c(F)cc(F)cc4[nH]2)CC3)CC1 [Example 266]"
  CC50 at 6 days: "> 10 µM"
- compound: "CCOCC1(N(C)C(=O)c2[nH]nc3c2CN(C(=O)c2cc4ccc(F)cc4[nH]2)CC3)CC1 [Example 395]"
  CC50 at 6 days: "> 10 µM"
- compound: "CN(CC(=O)OC(C)(C)C)C(=O)c1n[nH]c2c1CN(C(=O)c1cc3ccccc3[nH]1)CC2 [Example 171]"
  CC50 at 6 days: "> 10 µM"
- compound: "COC(=O)CC1(N(C)C(=O)c2n[nH]c3c2CN(C(=O)c2cc4ccccc4[nH]2)CC3)CC1 [Example 226]"
  CC50 at 6 days: "> 10 µM"
- compound: "Cc1noc(-c2n[nH]c3c2CN(C(=O)c2cc4ccccc4[nH]2)CC3)n1 [Example 116]"
  CC50 at 6 days: "> 100 µM"
- compound: "CN(C(=O)c1n[nH]c2c1CN(C(=O)c1cc3c(Cl)cccc3[nH]1)CC2)C1(CO)CC1 [Example 290]"
  CC50 at 6 days: "> 10 µM"
- compound: "COCC1(NC(=O)c2n[nH]c3c2CN(C(=O)c2cc4ccccc4[nH]2)CC3)CC1 [Example 202]"
  CC50 at 6 days: "> 10 µM"

Query: Give the measured CC50 at 6 days of CON(C)C(=O)c1n[nH]c2c1CN(C(=O)c1cc3ccccc3[nH]1)CC2 [Example 138] .
Response: > 100 µM

Query: Another compound to look at: O=C(c1cc2cc(F)c(F)cc2[nH]1)N1CCc2n[nH]c(C3CCC3)c2C1 [Example 390]
Response: > 10 µM

Query: Another compound to look at: CCNC(=O)c1n[nH]c2c1CN(C(=O)c1cc3ccccc3[nH]1)CC2 [Example 109]
Response: > 100 µM

Query: Another compound to look at: COCC1(N(C)C(=O)c2n[nH]c3c2CN(C(=O)c2cc4cccc(F)c4[nH]2)CC3)CC1 [Example 308]
Response: > 10 µM
